From: ChEMBL document CHEMBL3826894

- Tested on: HEK293
- measurement protocol: Cytotoxicity against human HEK293 cells assessed as reduction in cell viability after 72 hrs by MTT assay
- Type: cell-based
- measurement parameters: HEK293, 72 h
Assignment: determine reported pIC50 for the given compounds.
Answers are plain numbers, as −log10 of the molar value.

entry smiles: Cc1cc2c(C(C)C)c(O)c(O)c(C=O)c2c(O)c1-c1c(C)cc2c(C(C)C)c(O)c(O)c(C=O)c2c1O
pIC50: 4.96
--
entry smiles: COc1cc(O)c2c(=O)cc(-c3cc(O)c(O)cc3Cc3cccc(C)c3)oc2c1
pIC50: 4.13

Let's switch to this compound now.
Query: # input compound: O=c1cc(-c2cc(O)c(O)cc2Cc2ccccc2)oc2cc(O)cc(O)c12 ; wanted: its pIC50
Reply: 4.04

---

Assignment: determine reported inhibition for the given compounds.
- tested on: Apoptosis regulator Bcl-2 (Homo sapiens)
- Sequence (P10415 whole entry): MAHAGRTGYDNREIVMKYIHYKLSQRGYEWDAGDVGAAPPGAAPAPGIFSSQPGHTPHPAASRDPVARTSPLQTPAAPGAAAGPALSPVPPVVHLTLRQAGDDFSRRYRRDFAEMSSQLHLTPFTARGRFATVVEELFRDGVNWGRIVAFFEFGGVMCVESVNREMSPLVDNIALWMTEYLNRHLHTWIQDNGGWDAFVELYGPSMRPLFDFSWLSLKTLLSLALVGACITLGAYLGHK
- measurement protocol: Inhibition of Bcl-2 (unknown origin) using FAM-Bid peptide as substrate at 50 uM by fluorescence polarization-based assay
I'd appreciate it if you wrote the number followed by its unit.

Give inhibition for each of the items listed below.
1. O=c1cc(-c2cc(O)c(O)cc2Cc2ccccc2)oc2cc(O)cc(O)c12
2. O=c1cc(-c2ccc(O)c(O)c2)oc2cc(O)cc(O)c12
3. COc1cc(O)c2c(=O)cc(-c3cc(O)c(O)cc3Cc3ccccc3)oc2c1
4. Cc1cc2c(C(C)C)c(O)c(O)c(C=O)c2c(O)c1-c1c(C)cc2c(C(C)C)c(O)c(O)c(C=O)c2c1O

Reply:
1: 96%; 2: 46%; 3: 100%; 4: 100%

---

The next entries give measured Ki for Apoptosis regulator Bcl-2 (Homo sapiens, UniProt P10415).
Give bare numbers, in nM.

entry smiles: O=c1cc(-c2cc(O)c(O)cc2Cc2ccccc2)oc2cc(O)cc(O)c12
measurement name: Ki
val: 4600

Let's switch to this compound now.
Query: # input compound: COc1cc(O)c2c(=O)cc(-c3cc(O)c(O)cc3Cc3ccccc3)oc2c1 ; wanted: its Ki
Reply: 1300

---

- tested on: Bcl-2-like protein 1 (Homo sapiens)
- measurement protocol: Inhibition of Bcl-XL (unknown origin) using FAM-Bid peptide as substrate at 50 uM by fluorescence polarization-based assay
measurement name: inhibition (%)
Answers are plain numbers, in %.

Some solved cases for reference:
entry smiles: Cc1cc2c(C(C)C)c(O)c(O)c(C=O)c2c(O)c1-c1c(C)cc2c(C(C)C)c(O)c(O)c(C=O)c2c1O
inhibition, %: 100

entry smiles: O=c1cc(-c2cc(O)c(O)cc2Cc2ccccc2)oc2cc(O)cc(O)c12
inhibition, %: 70

entry smiles: O=c1cc(-c2ccc(O)c(O)c2)oc2cc(O)cc(O)c12
inhibition, %: 49

Let's switch to this compound now.
Query: # input compound: COc1cc(O)c2c(=O)cc(-c3cc(O)c(O)cc3Cc3ccccc3)oc2c1 ; wanted: its inhibition
Reply: 100

---

- tested on: Bcl-2-like protein 1 (Homo sapiens, UniProt Q07817)
- Sequence (Q07817 whole entry): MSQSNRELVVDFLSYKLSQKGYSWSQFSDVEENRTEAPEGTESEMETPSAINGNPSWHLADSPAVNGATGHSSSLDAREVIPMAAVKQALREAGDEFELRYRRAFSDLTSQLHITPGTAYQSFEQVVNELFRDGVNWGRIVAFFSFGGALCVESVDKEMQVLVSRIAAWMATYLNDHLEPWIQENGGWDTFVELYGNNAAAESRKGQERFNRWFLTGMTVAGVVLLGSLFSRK
Assignment: determine reported Ki for the given molecules.
One number for each entry, in nM.

Some solved cases for reference:
entry smiles: COc1cc(O)c2c(=O)cc(-c3cc(O)c(O)cc3Cc3ccccc3)oc2c1
readout units: nM
val: 2500
--
entry smiles: O=c1cc(-c2cc(O)c(O)cc2Cc2ccccc2)oc2cc(O)cc(O)c12
readout units: nM
val: 8400

Let's switch to this molecule now.
Query: # input molecule: Cc1cc2c(C(C)C)c(O)c(O)c(C=O)c2c(O)c1-c1c(C)cc2c(C(C)C)c(O)c(O)c(C=O)c2c1O ; wanted: its Ki
Reply: 310
